Reference for the values: paper PMC11259170

Target: mGPR65 (Mus musculus)
Construct: expressed in transfected cells; host or cells: HeLa (ATCC CCL-2), lentiviral transduction, pLX317
Sequence (Q61038 whole entry): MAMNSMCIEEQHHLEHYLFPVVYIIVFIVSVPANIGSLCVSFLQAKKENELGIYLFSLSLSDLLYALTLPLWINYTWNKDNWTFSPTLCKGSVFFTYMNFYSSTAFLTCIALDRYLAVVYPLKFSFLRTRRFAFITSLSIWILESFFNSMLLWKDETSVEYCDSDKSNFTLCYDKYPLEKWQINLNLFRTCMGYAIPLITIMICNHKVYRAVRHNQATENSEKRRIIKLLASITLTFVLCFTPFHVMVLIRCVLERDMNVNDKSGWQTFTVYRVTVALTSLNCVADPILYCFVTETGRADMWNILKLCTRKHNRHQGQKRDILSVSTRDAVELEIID
Assay: cAMP detection in HeLa expression cell line, mGPR65
Assay type: cell-based
Details: 1st mGPR column pair; NA = no activity; read-out: mGPR EC50
Procedure: HeLa stable expression cell lines were produced by lentiviral transduction. Briefly, lentiviral plasmids for each GPCR with a C-terminal V5 Tag ([…]) were made in a pLX317 backbone using competent Escherichia coli (New England Biolabs, C3050H). […] cAMP was measured in cells using the Lance Ultra cAMP Kit. […] Cells were counted in HBSS (Gibco, 14025092) and then resuspended in stimulation buffer prepared according to the manufacturer’s instructions and adjusted to pH 7.2 using 1 M sodium hydroxide. […]
Give measured EC50 for each item. Keep answers brief.
Your answer is read as nM, so omit the unit and give the number.

GET /value?item= Cc1ccc(NC(=O)c2cnn3c(O)cc(-c4ccc(N5CCC(=O)CC5)cc4)nc23)cc1 &field=EC50 returns 980

Value of measured EC50 for the entry COc1cc(-c2cc(O)n3ncc(C(=O)Nc4ccc(C)cc4)c3n2)ccc1Cl : 794

// sample Cc1ccc(NC(=O)c2cnn3c(O)cc(-c4ccc(N5CCN(C)CC5)c(Cl)c4)nc23)cc1 , its EC50 was 613

Recorded result, CCCc1cc(-c2cc(O)n3ncc(C(=O)Nc4ccc(C)cc4)c3n2)no1 , EC50: 103

The molecule listed as Cc1ccc(NC(=O)c2cnn3c(O)cc(-c4ccc(N5CCOCC5)c(Cl)c4)nc23)cc1 shows EC50 equal to 460

EC50 reported for this molecule COCc1ccc(-c2cc(O)n3ncc(C(=O)Nc4ccc(C(=O)OC)cc4)c3n2)cc1 : 820

Summary for this molecule, COCc1ccc(-c2cc(OC)n3ncc(C(=O)Nc4ccc(C)cc4)c3n2)cc1 : EC50 is 737

// field: EC50; key: COc1ccc(-c2cc(O)n3ncc(C(=O)Nc4ccc(C)cc4)c3n2)cc1 ; value = 24200

Lab book: EC50 of Cc1ccc(NC(=O)c2cnn3c(O)cc(-c4cccc(C)c4)nc23)cc1 noted as 471

Field EC50 (entry Cc1ccc(NC(=O)c2cnn3c(O)cc(Cc4c[nH]c5ccccc45)nc23)cc1 ) reads 18900

Notebook: COCc1ccc(-c2cc(O)n3ncc(C(=O)NCc4ccc(C)cc4)c3n2)cc1 , EC50 read as 2310

EC50 reading for Cc1ccc(NC(=O)c2cnn3c(O)cc(-c4ccc(F)cc4)nc23)cc1 : 1370

Just so you know, measured EC50 for COc1cccc(-c2cc(O)n3ncc(C(=O)Nc4ccc(C)cc4)c3n2)c1 came out at 378

CCn1cc(Cl)c(-c2cc(O)n3ncc(C(N)=O)c3n2)n1 has a reported EC50 of 16400

EC50 recorded for this molecule, CC(C)OCc1ccc(-c2cc(O)n3ncc(C(=O)Nc4ccccc4)c3n2)cc1 , is 2070

Item: Cc1ccc(NC(=O)c2cnn3c(O)cc(-c4ccc(N5CCOCC5)cc4)nc23)cc1 | EC50: 403

For this molecule ( Cc1ccc(NC(=O)c2cnn3c(O)cc(-c4ccc5ccccc5c4)nc23)cc1 ), measured EC50 is 191

For reference, reported EC50 for Cc1ccc(NC(=O)c2cnn3c(O)cc(-c4ccc(-c5ccccc5O)cc4)nc23)cc1 stands at 1580

Short answer for COc1cc(-c2cc(O)n3ncc(C(=O)Nc4ccc(C)cc4)c3n2)ccc1F : EC50 was 1150

Record summary for COCc1ccc(-c2cc(O)n3ncc(C(=O)Nc4cccc(C)c4)c3n2)cc1 : reported EC50 = 501

Per the record, Cc1ccc(NC(=O)c2cnn3c(O)cc(-c4ccc(N5CCN(C)CC5)nc4)nc23)cc1 has EC50 of 1350

Measured EC50, Cc1n[nH]c(C)c1CCc1cc(O)n2ncc(C(=O)Nc3ccc(Cl)cc3)c2n1 : 15900

In plain terms, CCS(=O)(=O)c1ccc(NC(=O)c2cnn3c(O)cc(-c4ccc(COC)cc4)nc23)cc1 has a documented EC50 of 10700

get_value(item= Cc1ccc(NC(=O)c2cnn3c(O)cc(-c4ccc(C(=O)N(C)C)cc4)nc23)cc1 , readout=EC50) returns 2980

Recorded result, COCc1ccc(-c2cc(O)n3ncc(C(=O)Nc4ccc(C(=O)N(C)C)cc4)c3n2)cc1 , EC50: 21500

Record summary for Cc1ccc(NC(=O)c2cnn3c(O)cc(CCc4c(C)n[nH]c4C)nc23)cc1 : reported EC50 = 33000

Record Cc1ccc(NC(=O)c2cnn3c(O)cc(-c4ccc(Cl)cc4)nc23)cc1 , field EC50: 644
